Recorded values, source patent US10336762B2.

Test system: TNFα
PROTOCOL_NOTES: cells
Type: cell-based, human
CONDITIONS: Homo sapiens, Monocyte, LPS-stimulated human monocytes, TNFα content; read-out: EC50 TNF
READOUT_KIND: EC50 (nM)
Quick note: give the figure in nM, leave out the unit.

Q: Using known records, supply EC50 for CNC(=O)[C@H]1CC[C@H](NC(=O)c2cnc(-c3ccc4cc(C#N)cnn34)cc2NC23CC(NC(C)=O)(C2)C3)CC1
Ans: 71

Q: Using known records, supply EC50 for CC(C)(O)[C@H](F)CNC(=O)c1cnc(-c2ccc3cc(C#N)cnn23)cc1Nc1cncc(C(F)F)c1
Ans: 75

Q: Using known records, supply EC50 for CNC(=O)c1cnc(-c2ccc3cc(C#N)cnn23)cc1NC12CC(NC(=O)OC)(C1)C2
Ans: 71

Q: Using known records, supply EC50 for CC(=O)N[C@H]1C[C@H](Nc2cc(-c3ccc4cc(C#N)cnn34)ncc2C(=O)NC[C@@H](F)C(C)(C)O)C1
Ans: 394

Q: Using known records, supply EC50 for CC(C)Nc1cc(-c2ccc3cc(C#N)cnn23)ncc1C(=O)N[C@@H]1CCC[C@H](O)C1
Ans: 141

Q: Using known records, supply EC50 for CC(C)(O)[C@H](F)CNC(=O)c1cnc(-c2ccc3cc(C#N)cnn23)cc1NC1CCC(S(C)(=O)=O)CC1 (stereo partly shown)
Ans: 412

Q: Using known records, supply EC50 for CC(C)(O)[C@H](F)CNC(=O)c1cnc(-c2ccc3cc(C#N)cnn23)cc1NCc1ccccn1
Ans: 382

###

The following compounds are shown together with reported IC50 values.
TARGET_OF_ASSAY: IRAK4 enzyme (Homo sapiens (Human), UniProt Q9NWZ3)
Sequence (Q9NWZ3 whole entry): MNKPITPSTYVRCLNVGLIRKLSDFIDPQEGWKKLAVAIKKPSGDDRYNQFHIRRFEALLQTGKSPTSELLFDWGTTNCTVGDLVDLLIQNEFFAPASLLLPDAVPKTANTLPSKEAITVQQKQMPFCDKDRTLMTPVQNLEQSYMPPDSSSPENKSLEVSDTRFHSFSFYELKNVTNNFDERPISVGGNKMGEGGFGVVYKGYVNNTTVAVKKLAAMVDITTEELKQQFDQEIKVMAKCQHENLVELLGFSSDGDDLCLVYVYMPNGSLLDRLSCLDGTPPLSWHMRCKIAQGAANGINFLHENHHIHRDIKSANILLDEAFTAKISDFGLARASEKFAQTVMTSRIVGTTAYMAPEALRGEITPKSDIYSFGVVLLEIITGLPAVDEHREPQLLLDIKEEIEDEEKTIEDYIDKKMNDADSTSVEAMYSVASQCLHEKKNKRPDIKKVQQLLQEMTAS
PROTOCOL_NOTES: biochemical
Type: biochemical
CONDITIONS: IRAK4 enzyme, TR-FRET, 500 μM ATP
Quick note: give the figure in nM, leave out the unit.

COMPOUND	TARGET_OF_ASSAY	UNIT_ABBREV	IC50
CC(C)(O)[C@H](F)CNC(=O)c1cnc(-c2ccc3cc(C#N)cnn23)cc1Nc1cccc(-c2cnc[nH]2)c1	IRAK4 enzyme (Homo sapiens (Human), UniProt Q9NWZ3)	nM	1
COC(=O)NC1(c2ccc(Nc3cc(-c4ccc5cc(C#N)cnn45)ncc3C(=O)N[C@H]3CC[C@H](NC(=O)C4CC4)CC3)cc2)CC1	IRAK4 enzyme (Homo sapiens (Human), UniProt Q9NWZ3)	nM	1
Cc1nc(-c2ccc(Nc3cc(-c4ccc5cc(C#N)cnn45)ncc3C(=O)NC[C@@H](F)C(C)(C)O)cc2)no1	IRAK4 enzyme (Homo sapiens (Human), UniProt Q9NWZ3)	nM	1
CC(C)(O)[C@H](F)CNC(=O)c1cnc(-c2ccc3cc(C#N)cnn23)cc1Nc1cccnc1F	IRAK4 enzyme (Homo sapiens (Human), UniProt Q9NWZ3)	nM	1
CC(=O)NC1(c2ccc(Nc3cc(-c4ccc5cc(C#N)cnn45)ncc3C(=O)NC[C@@H](F)C(C)(C)O)cc2)CC1	IRAK4 enzyme (Homo sapiens (Human), UniProt Q9NWZ3)	nM	1
COCCNc1cc(-c2ccc3cc(C#N)cnn23)ncc1C(=O)NC[C@@H](F)C(C)(C)O	IRAK4 enzyme (Homo sapiens (Human), UniProt Q9NWZ3)	nM	4

Q: Using known records, supply IC50 for CC(C)(O)[C@H](F)CNC(=O)c1cnc(-c2ccc3cc(C#N)cnn23)cc1NC1CCN(C(=O)c2ccoc2)CC1
Ans: 4

Q: Using known records, supply IC50 for CC(C)Nc1cc(-c2ccc3cc(C#N)cnn23)ncc1C(=O)NC1CCC(C)(O)CC1 (stereo not drawn)
Ans: 3

Q: Using known records, supply IC50 for CC(C)Nc1cc(-c2ccc3cc(C#N)cnn23)ncc1C(=O)N[C@@H]1CCOC[C@H]1F
Ans: 5

Q: Using known records, supply IC50 for CC(C)(O)[C@H](F)CNC(=O)c1cnc(-c2ccc3cc(C#N)cnn23)cc1N[C@H]1CC[C@@H](OC(=O)NC2CC2)CC1
Ans: 741

Q: Using known records, supply IC50 for CC(C)(O)[C@H](F)CNC(=O)c1cnc(-c2ccc3cc(C#N)cnn23)cc1NC1CC2(CNC2)C1
Ans: 2

Q: Using known records, supply IC50 for CC(C)(O)[C@H](F)CNC(=O)c1cnc(-c2ccc3cc(C#N)cnn23)cc1NC1CC2(CCN(CC(F)(F)F)C2)C1 (stereo partly drawn)
Ans: 1

Q: Using known records, supply IC50 for CC(C)(O)[C@H](F)CNC(=O)c1cnc(-c2ccc3cc(C#N)cnn23)cc1-n1cc(-c2cnc(N)cn2)cn1
Ans: 147

Q: Using known records, supply IC50 for CC(C)(O)[C@H](F)CNC(=O)c1cnc(-c2ccc3cc(C#N)cnn23)cc1NCc1c[nH]cn1
Ans: 9

Q: Using known records, supply IC50 for CC(C)(C)OC(=O)N[C@H]1CC[C@H](Nc2cc(-c3ccc4cc(C#N)cnn34)ncc2C(=O)NC[C@@H](F)C(C)(C)O)CC1
Ans: 1

Q: Using known records, supply IC50 for CC(C)(C)OC(=O)NC12CCC(Nc3cc(-c4ccc5cc(C#N)cnn45)ncc3C(=O)NC[C@@H](F)C(C)(C)O)(CC1)CC2
Ans: 4

Q: Using known records, supply IC50 for CC(C)(O)[C@H](F)CNC(=O)c1cnc(-c2ccc3cc(C#N)cnn23)cc1NC1CCC2(CCC(=O)N2)CC1 (stereo partly drawn) [Example 265]
Ans: 2

###

TARGET_OF_ASSAY: IRAK4 enzyme (Homo sapiens (Human))
PROTOCOL_NOTES: biochemical
Assay type: biochemical
CONDITIONS: IRAK4 enzyme, TR-FRET, 500 μM ATP
READOUT_KIND: IC50 (nM)
Quick note: give the figure in nM, leave out the unit.

Recorded IC50, per entry:
MOLECULE	TARGET_OF_ASSAY	UNIT_ABBREV	IC50
CC(C)Nc1cc(-c2ccc3cc(C#N)cnn23)ncc1C(=O)NC1CS(=O)(=O)C1	IRAK4 enzyme (Homo sapiens (Human))	nM	9
CC(C)(O)[C@H](F)CNC(=O)c1cnc(-c2ccc3cc(C#N)cnn23)cc1NC1C2CCC1CNC2 (single isomer, unassigned) [Example 27]	IRAK4 enzyme (Homo sapiens (Human))	nM	2

Then there is this molecule:
Q: Using known records, supply IC50 for CC(C)(O)[C@H](F)CNC(=O)c1cnc(-c2ccc3cc(C#N)cnn23)cc1NC1CCNC(=O)C1 (stereo partly shown)
Ans: 1

###

TARGET_OF_ASSAY: IRAK4 enzyme (Homo sapiens (Human), UniProt Q9NWZ3)
PROTOCOL_NOTES: biochemical
Type: biochemical
CONDITIONS: IRAK4 enzyme, TR-FRET, 500 μM ATP
The following molecules are shown together with reported IC50 values.
Quick note: give the figure in nM, leave out the unit.

Recorded IC50, per entry:
MOLECULE	IC50 / nM
CC(C)(O)[C@H](F)CNC(=O)c1cnc(-c2ccc3cc(C#N)cnn23)cc1N[C@H]1CC[C@H](N2CCOCC2)CC1 [Example 822]	1
CC(C)Nc1cc(-c2ccc3cc(C#N)cnn23)ncc1C(=O)NCCCS(C)(=O)=O [Example 85]	1
CC(C)(O)[C@H](F)CNC(=O)c1cnc(-c2ccc3cc(C#N)cnn23)cc1Nc1ccc(N2CCN(C3COC3)CC2)nc1 [Example 871]	1

Q: Fill in IC50 for CNC(=O)CCNC(=O)c1cnc(-c2ccc3cc(C#N)cnn23)cc1NC12CCC(O)(CC1)CC2 [Example 803] tested with IRAK4 enzyme (Homo sapiens (Human), UniProt Q9NWZ3).
Ans: 1

Q: Fill in IC50 for COC(=O)N1CCC(Nc2cc(-c3ccc4cc(C#N)cnn34)ncc2C(=O)NC[C@@H](F)C(C)(C)O)CC1 [Example 242] tested with IRAK4 enzyme (Homo sapiens (Human), UniProt Q9NWZ3).
Ans: 2

###

TARGET_OF_ASSAY: IRAK4 enzyme (Homo sapiens (Human), UniProt Q9NWZ3)
PROTOCOL_NOTES: biochemical
Assay type: biochemical
CONDITIONS: IRAK4 enzyme, TR-FRET (HTRF), 500 μM ATP
READOUT_KIND: IC50 (nM)
Quick note: give the figure in nM, leave out the unit.

Recorded IC50, per entry:
SMILES_TEXT	IC50 (nM)
COC(=O)N[C@H]1CC[C@H](Nc2cc(-c3ccc4cc(C#N)cnn34)ncc2C(=O)NC[C@@H](F)C(C)(C)O)C1	1
CC(C)(O)[C@H](F)CNC(=O)c1cnc(-c2ccc3cc(C#N)cnn23)cc1N[C@H]1CC[C@](C)(O)CC1	1

Q: Using known records, supply IC50 for CC(C)(O)[C@H](F)CNC(=O)c1cnc(-c2ccc3cc(C#N)cnn23)cc1Nc1ncc(F)cn1
Ans: 4

###

TARGET_OF_ASSAY: IRAK4 enzyme (Homo sapiens (Human), UniProt Q9NWZ3)
PROTOCOL_NOTES: biochemical
Assay type: biochemical
CONDITIONS: IRAK4 enzyme, TR-FRET, 500 μM ATP
READOUT_KIND: log10 IC50 (log10 of the value in nM)
Hey, these are logged values: log10 of IC50, nM being the unit before logging.

MOLECULE	OBSERVED_RESULT
CC(C)Nc1cc(-c2ccc3cc(C#N)cnn23)ncc1C(=O)NC1CC2(CC(O)C2)C1 (stereo not shown) [Example 149]	0.00

Q: Using known records, supply log10 IC50 for COc1cc(Nc2cc(-c3ccc4cc(C#N)cnn34)ncc2C(=O)NC[C@@H](F)C(C)(C)O)cnc1OC [Example 853]
Ans: 1.15

Q: Using known records, supply log10 IC50 for CC(C)(CCNC(=O)c1cnc(-c2ccc3cc(C#N)cnn23)cc1NC12CCC(O)(CC1)CC2)NS(C)(=O)=O [Example 342]
Ans: 0.00

Q: Using known records, supply log10 IC50 for COc1cc(Nc2cc(-c3ccc4cc(C#N)cnn34)ncc2C(=O)NC[C@@H](F)C(C)(C)O)ncn1 [Example 846]
Ans: 0.30

Q: Using known records, supply log10 IC50 for [2H]C([2H])([2H])NC(=O)c1cnc(-c2ccc3cc(C#N)cnn23)cc1NC12CCC(O)(CC1)CC2 [Example 358]
Ans: 0.48

Q: Using known records, supply log10 IC50 for CC(=O)N1CCC[C@@H](Nc2cc(-c3ccc4cc(C#N)cnn34)ncc2C(=O)NC[C@@H](F)C(C)(C)O)C1 [Example 253]
Ans: 0.48

Q: Using known records, supply log10 IC50 for CC(C)(O)[C@H](F)CNC(=O)c1cnc(-c2ccc3cc(C#N)cnn23)cc1Nc1cnn(C2CNC2)c1 [Example 232]
Ans: 0.00

Q: Using known records, supply log10 IC50 for CC(C)Nc1cc(-c2ccc3cc(C#N)cnn23)ncc1C(=O)N[C@@H]1CCOC1 [Example 37]
Ans: 1.08

Q: Using known records, supply log10 IC50 for CC(C)(O)[C@H](F)CNC(=O)c1cnc(-c2ccc3cc(C#N)cnn23)cc1NC[C@H]1CCN(CC(F)(F)F)C1 [Example 901]
Ans: 0.48

Q: Using known records, supply log10 IC50 for CC(C)Nc1cc(-c2ccc3cc(C#N)cnn23)ncc1C(=O)NC1CCC(NC(=O)C2(C)COC2)CC1 (stereo not shown) [Example 134]
Ans: 0.00

Q: Using known records, supply log10 IC50 for Cc1cc(Nc2cc(-c3ccc4cc(C#N)cnn34)ncc2C(=O)NC[C@@H](F)C(C)(C)O)cnc1F [Example 187]
Ans: 0.00

Q: Using known records, supply log10 IC50 for CN(C)C(=O)N[C@H]1CC[C@H](Nc2cc(-c3ccc4cc(C#N)cnn34)ncc2C(=O)NC[C@@H](F)C(C)(C)O)CC1 [Example 286]
Ans: 0.00

Q: Using known records, supply log10 IC50 for CCOC(=O)CCNC(=O)c1cnc(-c2ccc3cc(C#N)cnn23)cc1NC12CCC(O)(CC1)CC2 [Example 801]
Ans: 0.00

Q: Using known records, supply log10 IC50 for CC(C)Nc1cc(-c2ccc3cc(C(N)=O)cnn23)ncc1C(=O)NCC1CCS(=O)(=O)C1 (stereo not shown) [Example 9]
Ans: 1.20
